test: Metabolic stability in human liver microsomes assessed as parent compound decline at 10 uM incubated for 60 mins in presence of NADPH by HPLC analysis; assay type: ADME, Microsome; conditions: read-out: Drug degradation
Measured Attribute: metabolised at 1 h, 10 µM (%)

[[record]]
entry_smiles = "O=C(c1ccccc1F)n1ccc2c3c(=O)cc(-c4ccccc4)[nH]c3ccc21"
measured_attribute = "metabolised at 1 h, 10 µM"
measured_result = 20

[[record]]
entry_smiles = "O=C(c1ccccc1)n1ccc2c3c(=O)cc(-c4ccccc4)[nH]c3ccc21"
measured_attribute = "metabolised at 1 h, 10 µM"
measured_result = 20

[[record]]
entry_smiles = "O=C(c1ccccc1)n1ccc2c3c(=O)cc(-c4cccc(F)c4)[nH]c3ccc21"
measured_attribute = "metabolised at 1 h, 10 µM"
measured_result = 20

